Provenance of the data: ChEMBL document CHEMBL1133031

experiment: The cytotoxic activity was evaluated in MDBK cells; assay type: functional; settings: Bos taurus
observed_property: CC50 (µg/mL)
Form entry: value (µg/mL) — number only.

Reference set, count: 7
[
  {
    "compound": "C[C@@H]1CCC[C@H](C)N1CCCCNC(=O)c1cc(Cl)ccc1O",
    "unit_abbreviation": "µg/mL",
    "assay_result": 100
  },
  {
    "compound": "Cc1ccc(O)c(C(=O)NCCCN2[C@H](C)CC[C@@H]3CCCC[C@@H]32)c1",
    "unit_abbreviation": "µg/mL",
    "assay_result": 35
  },
  {
    "compound": "Cc1ccc(O)c(C(=O)NC2CC3CCC(C2)N3C)c1 (configuration not stated)",
    "unit_abbreviation": "µg/mL",
    "assay_result": 100
  },
  {
    "compound": "O=C(NCCCN1CCC[C@@H]2CCCC[C@H]21)c1cc(Cl)ccc1O",
    "unit_abbreviation": "µg/mL",
    "assay_result": 45
  },
  {
    "compound": "Cc1ccc(O)c(C(=O)NCCCCN2C(C)CC[C@@H]3CCCC[C@@H]32)c1 (some centres not stated)",
    "unit_abbreviation": "µg/mL",
    "assay_result": 90
  },
  {
    "compound": "O=C(NCCCN1CCC[C@@H]2CCCC[C@@H]21)c1cc(Cl)ccc1O",
    "unit_abbreviation": "µg/mL",
    "assay_result": 43
  },
  {
    "compound": "Cc1ccc(O)c(C(=O)NCCCN2CCC[C@@H]3CCCC[C@H]32)c1",
    "unit_abbreviation": "µg/mL",
    "assay_result": 60
  }
]

Record Cc1ccc(O)c(C(=O)NCCCN2C(C)CC[C@@H]3CCCC[C@H]32)c1 (single isomer, unassigned) , field CC50: 30

###

experiment: The cytotoxic activity was evaluated in MDBK cells; type: functional; conditions: Bos taurus
Listed compounds paired with reported CC50

[
  {
    "compound": "Cc1ccc(O)c(C(=O)NCCCN2C(C(C)C)CC[C@@H]3CCCC[C@@H]32)c1 (stereo not given in full)",
    "CC50": "80 µg/mL"
  },
  {
    "compound": "Cc1ccc(O)c(C(=O)NCCCN2CC(C)C[C@@H]3CCCC[C@@H]32)c1 (stereo not given in full)",
    "CC50": "9.5 µg/mL"
  },
  {
    "compound": "CC1CC[C@@H]2CCCC[C@@H]2N1CCCNC(=O)c1cc(Cl)ccc1O (stereo not given in full)",
    "CC50": "40 µg/mL"
  },
  {
    "compound": "CCC(C)N1CCC(NC(=O)c2cc(C)ccc2O)CC1 (stereo not given)",
    "CC50": "100 µg/mL"
  },
  {
    "compound": "Cc1ccc(O)c(C(=O)NCCCN2CCC(C)[C@@H]3CCCC[C@@H]32)c1 (stereo not given in full)",
    "CC50": "100 µg/mL"
  },
  {
    "compound": "Cc1ccc(O)c(C(=O)NCCCN2CCC[C@@H]3CCCC[C@@H]32)c1",
    "CC50": "> 100 µg/mL"
  },
  {
    "compound": "CN1C2CCC1CC(NC(=O)c1cc(Cl)ccc1O)C2 (stereo not given)",
    "CC50": "100 µg/mL"
  },
  {
    "compound": "C[C@@H]1CCC[C@H](C)N1CCCNC(=O)c1cc(Cl)ccc1O",
    "CC50": "30 µg/mL"
  }
]

// CC50 lookup, compound = Cc1ccc(O)c(C(=O)NCCCCN2CCC[C@@H]3CCCC[C@@H]32)c1 , result: 30 µg/mL

Lab note: Cc1ccc(O)c(C(=O)NCCCN(C(C)C)C(C)C)c1 gave CC50 of > 100 µg/mL
